FYI, the data here is from PubChem BioAssay (NCI).

Test system: OVCAR-3 ovarian
Test: NCI tumour cell line growth inhibition, 48 h
Can you tell me TGI for the items I'm about to list?

For the compound O=c1oc2c(Br)c(O)c(Br)cc2c2ccccc12 , give its reported TGI.
40.7 µM

For the compound Fc1cc(C2=C[C@H](c3ccc4c(c3)OCO4)NC(=S)N2)c(Cl)cc1Cl , give its reported TGI.
> 100 µM

For the compound CN(C)S(=O)(=O)n1ccnc1 , give its reported TGI.
> 100 µM

For the compound C=CCOC1=C2CC[C@H](O)[C@@]2(C)CCC1=O , give its reported TGI.
> 100 µM

For the compound Nc1sccc1S(=O)(=O)c1ccsc1N , give its reported TGI.
> 100 µM

For the compound O=C(O)C(F)(OC(F)(F)C(F)(F)C(F)(F)F)C(F)(F)F (stereo unspecified) , give its reported TGI.
> 100 µM

For the compound COc1ccc(NC(=O)CSc2nnc(Cc3ccccc3)o2)cc1 , give its reported TGI.
> 100 µM

For the compound S=C1CNC(=S)CN1 , give its reported TGI.
> 100 µM

For the compound C/C=C1/CN2CCC34C5=CC(=O)C(c6cc7c(cc6OC)N(C)C6=C(C(=O)OC)CC8(CC)CCCN9CCC67C98)=CC5=NC23CCC1C4C(=O)OC (stereo unspecified) , give its reported TGI.
27.4 µM

For the compound CC(C)c1ccc2c(c1)[C@@]1(C)CC[C@H](C)C(C)(C)C1CC2 (stereo partly specified) , give its reported TGI.
63 µM

For the compound Cn1c(=O)c(Sc2ccccc2F)cc2cnc(NC3CCOCC3)nc21 , give its reported TGI.
> 25 µM

For the compound Cc1ccc2c(=O)c(-c3nnsn3)c[nH]c2n1 , give its reported TGI.
> 100 µM

For the compound COC(=O)/C=C1/OC(c2ccc(Br)cc2)=C(Br)C1=O , give its reported TGI.
9.71 µM

For the compound Nc1ccccc1S(=O)c1ccccc1 (stereo unspecified) , give its reported TGI.
> 100 µM

For the compound Nc1ccc(-c2nc3cc(F)ccc3s2)cc1Br , give its reported TGI.
> 100 µM

For the compound Nc1ccccc1C#Cc1ccccc1C#Cc1ccccc1N , give its reported TGI.
8.24 µM

For the compound S=C(Nc1ccc(-c2nc3ccccc3s2)cc1)Nc1ccccn1 , give its reported TGI.
> 53.9 µM

For the compound CNC(=O)c1cc(Oc2ccc3nc(NC(=O)c4cc(C(F)(F)F)cc(C(F)(F)F)c4)sc3c2)ccn1 , give its reported TGI.
6.64 µM

For the compound COC(=O)c1c(O)ccc2c1c1c(n2Cc2ccccn2)C(=O)c2ccccc2C1 , give its reported TGI.
> 100 µM

For the compound CNC(=S)NNC(=O)c1c(C)nc2sccn12 , give its reported TGI.
> 100 µM

For the compound Cc1cc2c(cc1Cl)SC(NN(C)C)=NS2(=O)=O , give its reported TGI.
> 10 µM

For the compound CC(C)(C)OC(=O)N1C[C@H](CC(=O)OCc2ccccc2)C[C@H]1C(=O)OCC(Cl)(Cl)Cl , give its reported TGI.
32.9 µM

For the compound Cc1cc(C)nc(NC(=S)Nc2cccc(Cl)c2)c1 , give its reported TGI.
> 100 µM

For the compound NC(=O)ON=C1CCN(Cc2ccccc2)CC1 , give its reported TGI.
> 100 µM

For the compound Clc1cccc(Cn2cc(Cc3cn(Cc4cccc(Cl)c4)c4ccccc34)c3ccccc32)c1 , give its reported TGI.
> 100 µM

For the compound Cc1ccccc1NC(=O)N/C(N)=N/c1nc2ccccc2s1 , give its reported TGI.
0.267 µM

For the compound CC(=O)c1cc2c3c(c1)c1cc4c(cc1c(=O)n3CC2)OCO4 , give its reported TGI.
> 100 µM

For the compound Cc1cc(=O)cc2sc3cc(Cl)ccc3nc1-2 , give its reported TGI.
31.9 µM

For the compound CC(Br)C(=O)c1ccc2cc(Br)c3ccccc3c2c1 (stereo unspecified) , give its reported TGI.
26.6 µM

For the compound NNC(=O)CC(=O)Nc1ccc(C(=O)O)cc1 , give its reported TGI.
> 100 µM

For the compound CCCCCCCCCCCCCCCCCC(=O)[O][Sn]([CH2]CCC)([CH2]CCC)[CH2]CCC , give its reported TGI.
0.254 µM

For the compound COc1cc(O)c2c(=O)c3ccccc3n(C)c2c1 , give its reported TGI.
> 100 µM

For the compound COC1=C(C)C(=O)C2C(C1=O)C(c1ccc(OC)c(OC)c1)[C@H]2C (stereo partly specified) , give its reported TGI.
> 100 µM

For the compound C#CCn1c(=O)c(C)cn(/C(=C/C(=O)OCC)C(=O)OCC)c1=O , give its reported TGI.
19.6 µM

For the compound CCOC(=O)/C(=C/c1cc(OC)ccc1OC)CC(=O)O , give its reported TGI.
> 100 µM

For the compound Cc1cc(C)c2c(=O)n(CN3CCN(c4ccccc4)CC3)sc2n1 , give its reported TGI.
99.6 µM

For the compound CC(C)Cc1ccc(C(C)/C=C2\CCC(CN3CCOCC3)C2=O)cc1 (stereo unspecified) , give its reported TGI.
9.95 µM

For the compound CC(=O)NC(ON1C(=O)COc2ccccc21)C(Cl)(Cl)Cl (stereo unspecified) , give its reported TGI.
> 100 µM

For the compound CCC(C#N)N(Cc1ccc(CN(C(=O)c2ccccc2)C(C#N)CC)cc1)C(=O)c1ccccc1 (stereo unspecified) , give its reported TGI.
48.2 µM

For the compound N#Cc1cc2c(n(C3OC(CO)C(O)C(O)C3O)c1=S)CCCCC2 (stereo unspecified) , give its reported TGI.
> 100 µM

For the compound O=C(c1ccc(F)c(F)c1Nc1ccc(I)cc1F)N1CC(O)([C@H]2CCCCN2)C1 , give its reported TGI.
25.2 µM

For the compound NC(=O)c1ncn(C2OC(CO)C(O)C2O)n1 (stereo unspecified) , give its reported TGI.
> 100 µM

For the compound COc1ccc(Cc2nc3cc(Cl)ccc3o2)cc1 , give its reported TGI.
94.1 µM

For the compound CCOC(=O)c1c(N2CCOCC2)[nH]c(=O)c(C(c2c(O)c(C(=O)OCC)c(N3CCOCC3)[nH]c2=O)C(C)C)c1O , give its reported TGI.
> 100 µM

For the compound CCOC(=O)C(Cc1ccc(OC(=O)c2ccc(OC)cc2OC)cc1)NC(=O)C(F)(F)F (stereo unspecified) , give its reported TGI.
36.9 µM

For the compound C=CC1(c2ccc(Cl)c(Cl)c2)OCCO1 , give its reported TGI.
> 100 µM
